Listing of entries alongside the reported viability at 24 h, 0.3 µM.
- Experimental Details: Cytotoxicity against rat H4IIE cells assessed as cell viability at 0.3 uM after 24 hrs by MTT assay relative to control
- Type: toxicity
- Condition Info: read-out: Activity
Express the result in % but write the number alone.

# example entries with known answers
1. Cc1ccc(C(C)C)cc1OC(=O)Nc1cccc(F)c1	74.1
2. Cc1ccc(C(C)C)c(OC(=O)Nc2ccc([N+](=O)[O-])cc2)c1	54.4
3. Cc1ccc(C(C)C)cc1OC(=O)NC1CCCC1	71.1

Query block: Look up viability at 24 h, 0.3 µM: Cc1ccc(C(C)C)cc1OC(=O)Nc1ccc(F)cc1
Result block: 68.9

Query block: Look up viability at 24 h, 0.3 µM: Cc1ccc(C(C)C)cc1OC(=O)Nc1ccccc1
Result block: 90

---

- System Tested: Cholinesterase (Equus caballus, UniProt P81908)
- Sequence (P81908 whole entry): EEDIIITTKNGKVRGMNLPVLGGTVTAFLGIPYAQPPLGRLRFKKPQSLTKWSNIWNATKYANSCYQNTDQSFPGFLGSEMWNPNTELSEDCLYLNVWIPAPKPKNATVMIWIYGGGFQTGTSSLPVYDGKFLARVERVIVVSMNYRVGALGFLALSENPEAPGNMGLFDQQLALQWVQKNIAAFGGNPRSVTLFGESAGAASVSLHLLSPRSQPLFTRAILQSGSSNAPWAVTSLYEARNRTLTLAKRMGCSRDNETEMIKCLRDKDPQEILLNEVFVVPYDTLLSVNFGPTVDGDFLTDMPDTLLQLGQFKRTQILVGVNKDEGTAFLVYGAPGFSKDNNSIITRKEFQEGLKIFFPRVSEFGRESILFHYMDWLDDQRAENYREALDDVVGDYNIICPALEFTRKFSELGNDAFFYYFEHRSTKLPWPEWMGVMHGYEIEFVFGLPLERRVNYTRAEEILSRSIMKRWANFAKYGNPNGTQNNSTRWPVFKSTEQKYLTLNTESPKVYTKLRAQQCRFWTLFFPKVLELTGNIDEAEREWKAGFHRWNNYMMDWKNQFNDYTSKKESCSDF
- Experimental Details: Inhibition of horse serum BuChE using butyrylthiocholine iodide as substrate preincubated for 15 mins followed by substrate addition by Ellman's method
Measure: pIC50
Keep in mind that pIC50 stands for -log10 of concentration in molar terms.

# example entries with known answers
1. Cc1ccc(C(C)C)cc1OC(=O)Nc1ccc([N+](=O)[O-])cc1	5.98
2. Cc1ccc(NC(=O)Oc2cc(C)ccc2C(C)C)cc1	5.03
3. Cc1ccc(C(C)C)c(OC(=O)NCc2ccccc2)c1	5.84
4. Cc1ccc(C(C)C)cc1OC(=O)NC1CCCC1	6.00
5. Cc1ccc(C(C)C)cc1OC(=O)NC1CCCCC1	5.99
6. Cc1ccc(C(C)C)cc1OC(=O)Nc1cccc(F)c1	5.99

Query block: Look up pIC50: Cc1ccc(C(C)C)cc1OC(=O)Nc1ccc(C(F)(F)F)cc1
Result block: 5.91

These entries and their values trace back to ChEMBL document CHEMBL3877312.
